target: Dual specificity tyrosine-phosphorylation-regulated kinase 1B (Homo sapiens); assay: NanoBRET (SGC Frankfurt) (DYRK1B)
Sequence (Q9Y463 whole entry): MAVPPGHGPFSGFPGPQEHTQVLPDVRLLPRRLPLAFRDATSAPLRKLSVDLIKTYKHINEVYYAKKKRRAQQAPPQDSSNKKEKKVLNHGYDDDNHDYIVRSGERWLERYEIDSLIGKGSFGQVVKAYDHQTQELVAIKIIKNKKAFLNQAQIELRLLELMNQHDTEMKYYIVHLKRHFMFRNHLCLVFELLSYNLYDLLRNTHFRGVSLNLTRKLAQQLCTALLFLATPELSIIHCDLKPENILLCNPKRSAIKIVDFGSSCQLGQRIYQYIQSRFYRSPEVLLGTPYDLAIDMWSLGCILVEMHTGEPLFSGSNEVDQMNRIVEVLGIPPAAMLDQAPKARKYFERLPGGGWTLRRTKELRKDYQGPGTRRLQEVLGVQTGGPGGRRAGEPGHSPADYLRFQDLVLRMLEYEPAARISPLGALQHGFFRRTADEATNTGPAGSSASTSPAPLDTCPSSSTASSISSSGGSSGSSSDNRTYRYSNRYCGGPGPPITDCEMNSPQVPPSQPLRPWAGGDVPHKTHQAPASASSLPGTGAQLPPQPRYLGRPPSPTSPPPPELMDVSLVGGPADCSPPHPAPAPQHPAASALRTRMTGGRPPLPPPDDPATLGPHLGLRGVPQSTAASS
reportedMetric: IC50 (nM)
Record the value in nM, omitting the unit from your answer.

Incoming: Item `CN1CCN(C(=O)C(C)(C)c2ccc(C(=O)Nc3cn4cc(-c5ccncc5)ccc4n3)cc2)CC1` : provide IC50
Outgoing: 67

---

biological target: Muscarinic acetylcholine receptor M1 (Homo sapiens, UniProt P11229); assay: GPCRScan assay: inhibition of M1; set-up: radioligand conc. used [nm] 0.3 – 1.2, parental cells stable CHO; conditions: read-out: Ki
Sequence (P11229 whole entry): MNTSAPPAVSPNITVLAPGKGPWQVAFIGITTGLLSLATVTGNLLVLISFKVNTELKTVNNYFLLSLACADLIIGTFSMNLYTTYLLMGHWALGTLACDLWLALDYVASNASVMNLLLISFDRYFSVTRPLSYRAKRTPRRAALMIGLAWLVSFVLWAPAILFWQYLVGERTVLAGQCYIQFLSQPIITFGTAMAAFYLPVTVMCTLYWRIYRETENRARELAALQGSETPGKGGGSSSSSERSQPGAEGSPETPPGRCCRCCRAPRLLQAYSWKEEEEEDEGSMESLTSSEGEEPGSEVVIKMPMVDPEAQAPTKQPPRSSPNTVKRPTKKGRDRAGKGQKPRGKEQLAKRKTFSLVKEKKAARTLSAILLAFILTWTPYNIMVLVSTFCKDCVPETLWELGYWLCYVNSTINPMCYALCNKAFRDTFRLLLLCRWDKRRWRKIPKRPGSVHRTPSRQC
reportedMetric: Ki
Answer shape: numeric part, then the unit.

Incoming: Indicate the recorded Ki value for this molecule: CN1CCN(C(=O)C(C)(C)c2ccc(C(=O)Nc3cn4cc(-c5cc(C(C)(C)C)cc(C(C)(C)C)c5)ccc4n3)cc2)CC1 [T3-CLK-N]
Outgoing: 2090 nM

---

molecular target: 5-hydroxytryptamine receptor 2C (Homo sapiens, UniProt P28335); assay: GPCRScan assay: inhibition of 5-HT2C; parameters: radioligand conc. used [nm] 1.0 – 2.5, parental cells HEK T; conditions: read-out: Ki
Sequence (P28335 whole entry): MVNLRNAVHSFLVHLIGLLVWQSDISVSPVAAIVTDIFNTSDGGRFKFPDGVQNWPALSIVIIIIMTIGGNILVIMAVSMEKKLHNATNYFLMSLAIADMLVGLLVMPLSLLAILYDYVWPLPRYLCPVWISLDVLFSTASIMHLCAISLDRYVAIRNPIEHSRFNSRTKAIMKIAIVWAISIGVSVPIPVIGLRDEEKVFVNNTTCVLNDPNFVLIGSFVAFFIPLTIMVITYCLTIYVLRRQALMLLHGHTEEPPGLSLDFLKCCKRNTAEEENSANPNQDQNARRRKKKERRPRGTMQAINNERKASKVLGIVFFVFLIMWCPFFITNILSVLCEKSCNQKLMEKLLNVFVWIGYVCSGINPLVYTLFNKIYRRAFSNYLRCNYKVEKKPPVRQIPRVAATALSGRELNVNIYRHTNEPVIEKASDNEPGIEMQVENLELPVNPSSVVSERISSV
reportedMetric: pKi
Just the number, please; pKi means minus log10 of the concentration in mol/L.

Incoming: Indicate its recorded pKi; the compound in question is `CN1CCN(C(=O)C(C)(C)c2ccc(C(=O)Nc3cn4cc(-c5cc(C(C)(C)C)cc(C(C)(C)C)c5)ccc4n3)cc2)CC1`
Outgoing: 5.97

---

target: D(3) dopamine receptor (Homo sapiens, UniProt P35462); test: GPCRScan assay: inhibition of D3; set-up: radioligand conc. used [nm] 0.5 – 1.8, parental cells HEKT; details: read-out: Ki
Sequence (P35462 whole entry): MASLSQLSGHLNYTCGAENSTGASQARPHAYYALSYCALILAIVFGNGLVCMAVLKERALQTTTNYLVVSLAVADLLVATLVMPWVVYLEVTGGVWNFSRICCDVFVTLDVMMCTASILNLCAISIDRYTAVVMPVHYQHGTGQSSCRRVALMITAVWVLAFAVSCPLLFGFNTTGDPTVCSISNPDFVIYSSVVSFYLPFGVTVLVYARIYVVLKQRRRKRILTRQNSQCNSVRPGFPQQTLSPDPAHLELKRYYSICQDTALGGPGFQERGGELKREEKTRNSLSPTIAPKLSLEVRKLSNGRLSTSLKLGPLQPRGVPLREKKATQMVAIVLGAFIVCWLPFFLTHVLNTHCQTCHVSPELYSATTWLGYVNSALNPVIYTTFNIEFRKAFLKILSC
reportedMetric: Ki

Incoming: Query Ki for `CN1CCN(C(=O)C(C)(C)c2ccc(C(=O)Nc3cn4cc(-c5cc(C(C)(C)C)cc(C(C)(C)C)c5)ccc4n3)cc2)CC1`
Outgoing: 2250 nM

---

target: Histamine H2 receptor (Homo sapiens, UniProt P25021); test: GPCRScan assay: inhibition of H2; design: radioligand conc. used [nm] 0.02 – 0.05, parental cells Stable HEK; conditions: read-out: Ki
Sequence (P25021 whole entry): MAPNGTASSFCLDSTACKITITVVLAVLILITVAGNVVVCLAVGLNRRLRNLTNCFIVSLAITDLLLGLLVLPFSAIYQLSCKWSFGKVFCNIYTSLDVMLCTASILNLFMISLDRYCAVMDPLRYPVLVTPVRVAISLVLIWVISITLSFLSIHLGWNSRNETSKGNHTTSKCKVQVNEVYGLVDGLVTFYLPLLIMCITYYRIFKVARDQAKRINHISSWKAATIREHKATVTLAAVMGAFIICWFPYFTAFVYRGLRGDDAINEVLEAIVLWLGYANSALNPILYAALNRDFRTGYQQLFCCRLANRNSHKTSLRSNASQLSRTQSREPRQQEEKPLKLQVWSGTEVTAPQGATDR
reportedMetric: Ki (µM)
State just the number; it will be interpreted in µM.

Incoming: Give the reported value of Ki for this record: `CN1CCN(C(=O)C(C)(C)c2ccc(C(=O)Nc3cn4cc(-c5cc(C(C)(C)C)cc(C(C)(C)C)c5)ccc4n3)cc2)CC1`
Outgoing: 1.73

---

target: 5-hydroxytryptamine receptor 5A (Homo sapiens, UniProt P47898); assay: GPCRScan assay: inhibition of 5-HT5A; design: radioligand conc. used [nm] 2.0 - 3.3, parental cells Flp-In CHO; conditions: read-out: Ki
Sequence (P47898 whole entry): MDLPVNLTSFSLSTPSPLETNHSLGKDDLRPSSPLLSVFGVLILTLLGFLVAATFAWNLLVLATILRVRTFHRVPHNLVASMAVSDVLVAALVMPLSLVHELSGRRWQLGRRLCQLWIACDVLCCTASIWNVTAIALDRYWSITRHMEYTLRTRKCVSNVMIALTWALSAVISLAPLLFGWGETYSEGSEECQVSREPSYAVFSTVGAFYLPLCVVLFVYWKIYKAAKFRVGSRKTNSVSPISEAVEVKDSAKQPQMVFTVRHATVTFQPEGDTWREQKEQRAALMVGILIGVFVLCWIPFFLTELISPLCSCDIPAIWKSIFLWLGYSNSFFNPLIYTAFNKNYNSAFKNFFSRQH
reportedMetric: Ki (µM)
Give the number; µM is assumed, so skip it.

Incoming: # return recorded Ki for input `CN1CCN(C(=O)C(C)(C)c2ccc(C(=O)Nc3cn4cc(-c5cc(C(C)(C)C)cc(C(C)(C)C)c5)ccc4n3)cc2)CC1`
Outgoing: 2.49
